- study.system: T1, Bbc1, P47068
- T1 sequence (P47068 1-78, looked up): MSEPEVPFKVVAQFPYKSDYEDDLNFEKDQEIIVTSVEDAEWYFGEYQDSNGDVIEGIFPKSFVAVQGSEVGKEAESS
- assay.notes: SPOT array
- condition.details: median of control spots 796
measured.property: SPOT intensity
Form rule: numeric answer, no unit written next to it.

Consider the reported SPOT intensity for these binders:
[[record]]
binder = "GLRRARYKFPGQQKI"
measured_property = "SPOT intensity"
observed = 79

[[record]]
binder = "QGYPRQPQRPQRYHP"
measured_property = "SPOT intensity"
observed = 34

[[record]]
binder = "NPLPKEPRLPKRKVA"
measured_property = "SPOT intensity"
observed = 221


`SSAAPPPPPRRATPE` yielded SPOT intensity of 8
